molecular target: Tyrosine-protein kinase Fgr (Homo sapiens) (UniProt P09769); conditions: at 1 µM
Sequence (P09769 2-529 limits assumed): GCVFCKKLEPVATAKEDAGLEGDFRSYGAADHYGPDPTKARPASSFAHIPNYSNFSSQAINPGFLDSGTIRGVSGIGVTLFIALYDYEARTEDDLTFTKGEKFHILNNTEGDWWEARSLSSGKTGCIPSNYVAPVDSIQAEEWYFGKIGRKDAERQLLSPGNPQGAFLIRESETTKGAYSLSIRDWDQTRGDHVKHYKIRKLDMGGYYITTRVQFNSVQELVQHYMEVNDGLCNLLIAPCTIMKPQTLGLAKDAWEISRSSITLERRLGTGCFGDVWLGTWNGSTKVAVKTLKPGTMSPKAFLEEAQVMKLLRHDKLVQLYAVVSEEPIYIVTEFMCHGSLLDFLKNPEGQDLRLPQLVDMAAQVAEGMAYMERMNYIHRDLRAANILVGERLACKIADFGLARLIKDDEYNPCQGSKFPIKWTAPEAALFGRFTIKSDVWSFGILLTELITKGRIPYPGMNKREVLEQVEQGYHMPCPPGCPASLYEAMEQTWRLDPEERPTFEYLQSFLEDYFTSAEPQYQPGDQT
metric: inhibition (%)
Numbers only, in %.

Examples with their reported inhibition follow.
# compound-string, inhibition, %
data = [
    ("COc1cc(N2CCN(C(C)C)CC2)ccc1Nc1nc(Nc2ccc(F)cc2C(=O)NC[C@@H](O)CO)c2cc[nH]c2n1", 1.14),
    ("COc1cc2ncn(-c3cc(OCCc4ccccc4)c(C(N)=O)s3)c2cc1OC", 7.7),
    ("c1ccc(Oc2ccc(Nc3ncc(-c4ccccc4)o3)cc2)cc1", 4.81),
    ("NC(=O)c1cc(-c2ccc(F)cc2)cc(-c2ccncc2)c1N", 3.24),
    ("CNC(=O)c1cncc(/C=C/c2c(C)cccc2C)c1", 29.6),
]

query: Item: COc1cc2ncn(-c3cc(OCc4ccccc4C(F)(F)F)c(C(C)=O)s3)c2cc1OC Test system: Tyrosine-protein kinase Fgr (Homo sapiens) (UniProt P09769) Read-out: inhibition Value: ?
result: 6.26
